As a worked illustration, we turn to IC50 data collected for human Cereblon WT GST-tagged protein (Homo sapiens (Human)).

# COMPOUND, IC50
records = [
    ("O=C1CCC(N2Cc3cc(CN4C5CC4CN(C(c4ccccc4)c4ccccc4)C5)ccc3C2=O)C(=O)N1 (stereo not drawn)", "500 to 1000 nM"),
    ("O=C1CCC(N2Cc3cc(CN4CCN(C(c5ccccn5)c5ccccn5)CC4)c(F)cc3C2=O)C(=O)N1 (stereo not drawn)", "500 to 1000 nM"),
    ("O=C1CCC(N2C(=O)c3ccc(C(=O)N4CCN(C(c5cccc(F)c5)c5cccc(F)c5)CC4)cc3C2=O)C(=O)N1 (stereo not drawn)", "1000 to 1900 nM"),
    ("O=C1CCC(N2Cc3cc(C4CCN(C(c5ccccc5)c5ccccc5)CC4)ccc3C2=O)C(=O)N1 (stereo not drawn)", "500 to 1000 nM"),
    ("O=C1CCC(N2Cc3c(CN4CCN(C(c5ccccc5)c5ccncc5)CC4)cccc3C2=O)C(=O)N1 (stereo not drawn)", "500 to 1000 nM"),
    ("O=C1CCC(N2Cc3cc(C(=O)N4C[C@@H]5C[C@H]4CN5C(c4ccccc4)c4ccccc4)ccc3C2=O)C(=O)N1 (stereo partly drawn)", "500 to 1000 nM"),
    ("O=C1CCC(N2Cc3c(CN4CC5(CCN(C(c6ccccc6)c6ccccc6)CC5)C4)cccc3C2=O)C(=O)N1 (stereo not drawn)", "500 to 1000 nM"),
    ("O=C1CCC(N2Cc3c(CN4CCC5(CC4)CCN(C(c4ccccc4)c4ccccc4)CC5)cccc3C2=O)C(=O)N1 (stereo not drawn)", "1000 to 1900 nM"),
    ("O=C1CCC(N2Cc3cc(CN4C5CC4CN(C(c4ccccc4)c4ccccc4)C5)cc(F)c3C2=O)C(=O)N1 (stereo not drawn)", "500 to 1000 nM"),
    ("O=C1CCC(N2Cc3cc(C(=O)N4CC5(CCN(C(c6ccccc6)c6ccccc6)CC5)C4)ccc3C2=O)C(=O)N1 (stereo not drawn)", "< 500 nM"),
    ("C[C@@H]1CN(C(c2ccccc2)c2ccccc2)CCN1C(=O)c1ccc2c(c1)CN(C1CCC(=O)NC1=O)C2=O (stereo partly drawn)", "< 500 nM"),
    ("O=C1CCC(N2Cc3cc(CN4CCN(C(c5ccc(F)cc5)c5ccc(F)cc5)CC4)c(F)cc3C2=O)C(=O)N1 (stereo not drawn)", "500 to 1000 nM"),
    ("O=C1CCC(N2Cc3cc(CN4CCN(C(c5ccccc5F)c5ccccc5F)CC4)c(F)cc3C2=O)C(=O)N1 (stereo not drawn)", "500 to 1000 nM"),
    ("O=C1CCC(N2Cc3cc(CN4CCC(N(c5ccccc5)c5ccccn5)CC4)cc(F)c3C2=O)C(=O)N1 (stereo not drawn)", "500 to 1000 nM"),
    ("O=C1CCC(N2Cc3cc(CN4CCN(C(c5ccccc5)c5cccnc5)CC4)c(F)cc3C2=O)C(=O)N1 (stereo not drawn)", "< 500 nM"),
]

----------
As a worked illustration, we turn to pIC50 data collected for human Cereblon WT GST-tagged protein (Homo sapiens (Human), UniProt Q96SW2).
pIC50: −log10 of the molar value.

# COMPOUND, pIC50
records = [
    ("CC1CN(C(c2ccccc2)c2ccccc2)CC(C)N1Cc1cc(F)c2c(c1)CN(C1CCC(=O)NC1=O)C2=O (stereo not shown)", "> 6.30"),
    ("O=C1CCC(N2Cc3cc(C(=O)N4CCN(C(c5ccccc5)c5ccccn5)CC4)cc(F)c3C2=O)C(=O)N1 (stereo not shown)", "5.72 to 6.00"),
    ("O=C1CCC(N2Cc3c(ccc(CN4CCC(N(c5ccccc5)c5ccccn5)CC4)c3F)C2=O)C(=O)N1 (stereo not shown)", "> 6.30"),
    ("O=C1CCC(N2Cc3c(ccc(CN4CCC(N(c5ccccc5)c5ccccc5)CC4)c3F)C2=O)C(=O)N1 (stereo not shown)", "> 6.30"),
    ("O=C1CCC(N2Cc3cc(CN4C[C@@H]5C[C@H]4CN5C(c4ccccc4)c4ccccc4)c(F)cc3C2=O)C(=O)N1 (stereo partly shown)", "> 6.30"),
    ("O=C1CCC(N2Cc3c(ccc(CN4CC5CN(C(c6ccccc6)c6ccccc6)CC5C4)c3F)C2=O)C(=O)N1 (stereo not shown)", "> 6.30"),
    ("O=C1CCC(N2Cc3c(CN4CCC(N(c5ccccc5)c5ccccn5)CC4)cccc3C2=O)C(=O)N1 (stereo not shown)", "6.00 to 6.30"),
]
